- Test system: Escherichia coli TOP10;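 further: peptides expressed intracellularly from a pBAD plasmid library in pooled LB shake-flask culture, induced with 0.3% L-arabinose, DNA abundance read by NGS, three biological replicates, DESeq2 with apeglm shrinkage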
- method_notes: shrunken log2 fold change of peptide-encoding DNA abundance (4.5 h post-induction vs induction); higher = less antimicrobial activity (less host growth inhibition)
- condition_details: time post-induction: 4.5 h; library: site-saturation at positions 5, 18, 19, 20
I'd appreciate it if you could supply shrunken log2 fold change values for the items below.

Some solved cases for reference:
RRIRKRPPRLPRPRPRPQSNPRP    0.0971
RRIRFRPPRLPRPRPRPWKKPRP    -0.00973
RRIRIRPPRLPRPRPRPPTAPRP    0.335
RRIRKRPPRLPRPRPRPGWIPRP    1.07
RRIRSRPPRLPRPRPRPCGCPRP    -0.00437
RRIRCRPPRLPRPRPRPCDEPRP    -0.0731
RRIRMRPPRLPRPRPRPDVWPRP    1.19
RRIRDRPPRLPRPRPRPGILPRP    -0.197

Could you tell me shrunken log2 fold change for each of these sequences? They are listed below.
1. RRIRWRPPRLPRPRPRPAITPRP
2. RRIRHRPPRLPRPRPRPFDWPRP
3. RRIRTRPPRLPRPRPRPDSPPRP
4. RRIRIRPPRLPRPRPRPFKCPRP
5. RRIRTRPPRLPRPRPRPWRLPRP
6. RRIRTRPPRLPRPRPRPNDCPRP
7. RRIRFRPPRLPRPRPRPYGSPRP

0.188
-0.0238
-0.549
0.000802
-0.127
0.0184
-0.182

Could you tell me shrunken log2 fold change for each of these sequences? They are listed below.
1. RRIRSRPPRLPRPRPRPWCAPRP
2. RRIRARPPRLPRPRPRPCAHPRP
3. RRIRERPPRLPRPRPRPCPIPRP
4. RRIRNRPPRLPRPRPRPWWDPRP
5. RRIRDRPPRLPRPRPRPSASPRP
6. RRIRHRPPRLPRPRPRPRCCPRP

[0.0451, -0.0288, -0.246, -0.00674, 0.259, -0.079]

Could you tell me shrunken log2 fold change for each of these sequences? They are listed below.
1. RRIRNRPPRLPRPRPRPTCNPRP
2. RRIRFRPPRLPRPRPRPYMRPRP
3. RRIRTRPPRLPRPRPRPLTGPRP
4. RRIRSRPPRLPRPRPRPESKPRP
5. RRIRYRPPRLPRPRPRPPFRPRP
6. RRIRLRPPRLPRPRPRPDADPRP
7. RRIRGRPPRLPRPRPRPLFYPRP
8. RRIRMRPPRLPRPRPRPAECPRP

-0.288
0.00487
-0.0139
0.385
-0.0932
1.25
0.257
0.042

Could you tell me shrunken log2 fold change for each of these sequences? They are listed below.
1. RRIRWRPPRLPRPRPRPPLPPRP
2. RRIRQRPPRLPRPRPRPGVIPRP
3. RRIRVRPPRLPRPRPRPIFNPRP
4. RRIRGRPPRLPRPRPRPMVVPRP
5. RRIRNRPPRLPRPRPRPKWGPRP
6. RRIRYRPPRLPRPRPRPKAAPRP
7. RRIRRRPPRLPRPRPRPLRKPRP
8. RRIRDRPPRLPRPRPRPHVRPRP

[1.07, 0.0679, -0.274, 0.434, 0.147, 0.067, 0.793, -0.12]

Could you tell me shrunken log2 fold change for each of these sequences? They are listed below.
1. RRIRKRPPRLPRPRPRPRAAPRP
2. RRIRKRPPRLPRPRPRPVYMPRP

1.13
-0.082
